From: patent US4778912A

Kindly supply the reported response vs control in vivo at 0.33 mg values for the records listed here.
- System: Sarcoma 180 cells
- Test Details: Antitumor action in ICR mice inoculated intraperitoneally with Sarcoma 180 cells (life-span prolongation, 60-day survivors)
- Format: in vivo
- Condition Summary: Table 1; 1×10^5 Sarcoma 180 cells ip; 0.33 mg/mouse ip, three times (1 hour, 1 day, 2 days after inoculation); only mice surviving less than 60 days; read-out: Life-span prolongation ratio (T/C %)
Note to self: number, then unit, no commentary.

Need response vs control in vivo at 0.33 mg of CCCCCCCCCCCCCCCCCCOCC(COP(=O)([O-])OCCCCCCCCCC[N+](C)(C)C)OC(=O)CC(C)=O (stereo not shown) [Example 3] , thanks. 326%

# input compound: CCCCCCCCCCCCCCCCCCOCC(COP(=O)([O-])OCC[N+](C)(C)C)OC(=O)CCC (stereo not shown) [Compound (IV), reference compound] ; wanted: its response vs control in vivo at 0.33 mg 109%

Consider the compound CCCCCCCCCCCCCCCCCCNC(=O)OCC(COP(=O)([O-])OCC[N+](C)(C)C)OC (stereo not shown) [VI, reference compound] and give its measured response vs control in vivo at 0.33 mg. 202%

Fill in: response vs control in vivo at 0.33 mg of CCCCCCCCCCCCCCCCCCOCC(COP(=O)([O-])OCC[N+](C)(C)C)OC (stereo not shown) [Compound (III), reference compound] is ___ 162%

---

- System: PAF-induced platelet aggregation
- Test Details: Inhibition action against PAF in platelet aggregation (Washed PRP)
- Type: cell-based, male rabbit
- Condition Summary: Oryctolagus cuniculus, Table 6, test compound 3×10^-5 M, PAF 3×10^-7 M, read-out: Inhibition ratio
Recorded Metric: inhibition at 30 µM (%)
Numeric answer only, unit % assumed.

Any idea what inhibition at 30 µM was measured for CCCCCCCCCCCCCCCCCCOCC(COP(=O)([O-])OCC[N+](C)(C)C)OC(=O)CC(C)=O (stereo not shown) [Reference compound 1, reference compound] ? 0

Requested read-out: inhibition at 30 µM. Entry: CCCCCCCCCCCCCCCCCCOCC(COP(=O)([O-])OCCCCCCCCCC[N+](C)(C)C)OC(=O)CC(C)=O (stereo not shown) 72

Quick check: inhibition at 30 µM of CCCCCCCCCCCCCCCCCCOCC(COP(=O)([O-])OCCCCCCCCCC[N+](C)(C)C)OCC(C)=O (stereo not shown) ? 100

# query: inhibition at 30 µM of entry CCCCCCCCCCCCCCCCCCOCC(COP(=O)([O-])OCCC[N+](C)(C)C)OC(=O)CC(C)=O (stereo not shown) [Reference compound 2, reference compound] 0

---

- Tested on: MM46 cells
- Test Details: Antitumor action in C3H/He mice inoculated intraperitoneally with MM46 cells (life-span prolongation, 60-day survivors)
- Assay type: in vivo
- Condition Summary: Mus musculus, ip, Table 8; same conditions as Test Example 2-i; read-out: Life-span prolongation ratio (T/C %)
Param label: returns MET when response vs control in vivo at 0.25 mg < 200%, returns NOT MET otherwise, including exact equality.

Consider CCCCCCCCCCCCCCCCCCC(=O)COCC(COP(=O)([O-])OCCCCCCCCCC[N+](C)(C)C)OC (stereo not drawn) [Example 6] . Does its response vs control in vivo at 0.25 mg lie strictly below 200%? MET

Record CCCCCCCCCCCCCCCCCCOCC(COP(=O)([O-])OCCCCCCCCCC[N+](C)(C)C)OCC(=O)O (stereo not drawn) [Example 46] : is its response vs control in vivo at 0.25 mg strictly below 200%? NOT MET

Criterion: response vs control in vivo at 0.25 mg strictly below 200%. Is it met by CCCCCCCCCCCCCCCCCCOCC(COP(=O)([O-])OCCCCCCCCCC[N+](C)(C)C)OC (stereo not drawn) [Example 10] ? NOT MET

Quick check: response vs control in vivo at 0.25 mg of CCCCCCCCCCCCCCCCCCNC(=O)OCC(COP(=O)([O-])OCCCCCCCCCC[N+](C)(C)C)OC (stereo not drawn) [Example 11] under 200%? MET

# strict comparison: is reported response vs control in vivo at 0.25 mg < 200%? input = CC(=O)CC(=O)OC(COCCCCCCCCCCCCCCC(C)C)COP(=O)([O-])OCCCCCCCCCC[N+](C)(C)C (stereo not drawn) [Example 43] NOT MET

Strictly below 200% in response vs control in vivo at 0.25 mg? CCCCCCCCCCCCCCCCCCOCC(COP(=O)([O-])OCCCCCCCCCC[N+](C)(C)C)OC(=S)NC (stereo not drawn) [Example 9] MET
